reverse-splicing fitness values, listed per item
B1: Azoarcus group I ribozyme (parent)
chain: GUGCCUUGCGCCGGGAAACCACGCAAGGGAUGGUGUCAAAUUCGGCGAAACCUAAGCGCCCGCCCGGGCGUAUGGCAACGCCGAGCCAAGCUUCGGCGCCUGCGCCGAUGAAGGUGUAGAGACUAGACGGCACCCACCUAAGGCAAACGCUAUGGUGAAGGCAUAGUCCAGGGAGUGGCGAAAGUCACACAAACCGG

Variants of: B1
experimental.protocol: reverse-splicing fitness (ratio to wild type); higher = more active; in vitro selection; Mg2+ level not given
// print number alone

[[record]]
mutation_code = "C82U A111U A120C A145G C150G C169U"
endpoint_value = 0.00911

[[record]]
mutation_code = "A111G A145C C169A U176C"
endpoint_value = 0.0139

[[record]]
mutation_code = "C82A A111G C150G C169U U176C"
endpoint_value = 0.0125

[[record]]
mutation_code = "C82A A111C A120G A145C C150U C169A"
endpoint_value = 0.00801

[[record]]
mutation_code = "C82U A120C A145C C150A C169A U176G"
endpoint_value = 0.00369


Query reverse-splicing fitness for C82U A111G A120C A145G C150G C169A U176C 0.0107

Query reverse-splicing fitness for C82G A111C A120G A145U C150G C169U U176G 0.00536

Query reverse-splicing fitness for C82G A111G A145U C150U C169U 0.0113

Query reverse-splicing fitness for C82G A111U A120G A145G C150G C169G 0.00782

Query reverse-splicing fitness for A111U A120U A145U C150G C169U 0.00751

Query reverse-splicing fitness for A111G A120U A145C C150A C169G U176A 0.00272

These data points were gathered from the RNAGym collection of RNA variant scans (doi:10.1093/molbev/msab373).
